Form field: log10(TGI) (one value per entry).
- Tested on: HS 578T breast
- assay_explanation: NCI tumour cell line growth inhibition, 48 h
Scale: decimal log of TGI, TGI in µM.

# annotated cases, reported log10(TGI) shown
CCN(CC)CCS(=O)c1c2cc(OC)ccc2nc2ccc(OC)cc12 (stereo unspecified) : 1.46
CCCCCCCCCCCCCCCCP(=O)(O)OP(=O)(O)OCC1OC(n2cnc3c(N)ncnc32)C(O)C1O (stereo unspecified) : 1.95
Cc1cc2c(F)c(Oc3ncnn4cc(OC[C@@H](C)OC(=O)[C@H](C)N)c(C)c34)ccc2[nH]1 : 1.65
CC1(C)OCC(CO)(Nc2nc(N3CC3)nc(N3CC3)n2)CO1 : 1.63
CN(C)CCNc1ccc2c(=O)n(CCN(C)C)c(=O)n3c4ccc(N)cc4c(=O)c1c23 : 0.11

Quick one: log10(TGI) for "Cc1ccc2c(N)c(C(=O)N[C@H]3CCc4cc(N5CC6CCC(C5)N6)ccc4C3)sc2n1" ?
0.39

Now give it for CC(=O)OCC1OC(O[C@@H]2c3c(O)c4c(c(O)c3C3=C(NN(c5ccc([N+](=O)[O-])cc5[N+](=O)[O-])[Se]3=O)[C@@]2(C)O)C(=O)c2ccccc2C4=O)C(OC(C)=O)C(OC(C)=O)C1OC(C)=O (stereo partly specified) too.
-0.03

Now give it for COc1cc2cc(C(=O)N3CC(CCl)c4ccc(NCCN)cc43)[nH]c2c(OC)c1OC (stereo unspecified) too.
0.53
